Sourced from patent US7015306B2

ASSAY_PROTOCOL: In vitro serum stability assay (HPLC) of In-111 labeled peptide
Type: in vitro ADME, human
TEST_PARAMETERS: human serum, 37EC, 4 hours
Where a SMILES comes first, the peptide text is derived from it. [ ]: non-standard residue; d: D form. The star is where a group is joined. ξ: configuration not given here. DTPA = O=C(O)CN(CCN(CC(=O)O)CC(=O)O)CCN(CC(=O)O)CC(=O)*; ξGly(4-Pip(1-amidino)) = N=C(N)N1CCC(C(N)C(=O)O)CC1; ξPhe(4-guanidino) = N=C(N)Nc1ccc(CC(N)C(=O)O)cc1; ξGly(piperidin-4-yl) = NC(C(=O)O)C1CCNCC1; Dmt = Cc1cc(O)cc(C)c1C[C@H](N)C(=O)O; mTyr = N[C@@H](Cc1cccc(O)c1)C(=O)O; tBuAla = CC(C)(C)C[C@H](N)C(=O)O; Tle = CC(C)(C)[C@H](N)C(=O)O
Parameter: % of peptide at 4 hours after incubation at 37EC, Serum. Scope: all listed entries.
Enter your answer as a number in %; do not include the unit.

Reference set, count: 5
molecule="CC[C@H](C)[C@H](NC(=O)[C@H](Cc1ccc(O)cc1)NC(=O)[C@@H]1CCCN1C(=O)[C@H](CCCNC(=N)N)NC(=O)C(CCc1ccnc(N)n1)NC(=O)[C@@H]1CCCN1C(=O)[C@@H](CCCCN)NC(=O)CN(CCN(CCN(CC(=O)O)CC(=O)O)CC(=O)O)CC(=O)O)C(=O)N[C@@H](CC(C)C)C(=O)O (single isomer, unassigned)" measured_value=4.3
molecule="CC[C@H](C)[C@H](NC(=O)[C@H](Cc1ccc(O)cc1)NC(=O)[C@@H]1CCCN1C(=O)C(Cc1ccc(NC(=N)N)cc1)NC(=O)C(Cc1ccc(NC(=N)N)cc1)NC(=O)[C@@H]1CCCN1C(=O)[C@@H](CCCCN)NC(=O)CN(CCN(CCN(CC(=O)O)CC(=O)O)CC(=O)O)CC(=O)O)C(=O)N[C@@H](CC(C)C)C(=O)O (stereo partly drawn) ({DTPA}-[dK]P[ξPhe(4-guanidino)][ξPhe(4-guanidino)]PYIL-OH)" measured_value=25.2
molecule="CC(C)C[C@H](NC(=O)[C@@H](NC(=O)[C@H](Cc1cccc(O)c1)NC(=O)[C@@H]1CCCN1C(=O)[C@H](CCCNC(=N)N)NC(=O)C(NC(=O)[C@@H]1CCCN1C(=O)[C@@H](CCCCN)NC(=O)CN(CCN(CCN(CC(=O)O)CC(=O)O)CC(=O)O)CC(=O)O)C1CCN(C(=N)N)CC1)C(C)(C)C)C(=O)O (stereo partly drawn) ({DTPA}-[dK]P[ξGly(4-Pip(1-amidino))]RP[mTyr][Tle]L-OH)" measured_value=84.4
molecule="Cc1cc(O)cc(C)c1C[C@H](NC(=O)[C@@H]1CCCN1C(=O)[C@H](CCCNC(=N)N)NC(=O)C(NC(=O)[C@@H]1CCCN1C(=O)[C@@H](CCCCN)NC(=O)CN(CCN(CCN(CC(=O)O)CC(=O)O)CC(=O)O)CC(=O)O)C1CCN(C(=N)N)CC1)C(=O)N[C@H](C(=O)N[C@@H](CC(C)C)C(=O)O)C(C)(C)C (stereo partly drawn) ({DTPA}-[dK]P[ξGly(4-Pip(1-amidino))]RP[Dmt][Tle]L-OH)" measured_value=96.6
molecule="CC(C)(C)C[C@H](NC(=O)[C@@H](NC(=O)[C@H](Cc1ccc(O)cc1)NC(=O)[C@@H]1CCCN1C(=O)[C@H](CCCNC(=N)N)NC(=O)C(NC(=O)[C@@H]1CCCN1C(=O)[C@@H](CCCCN)NC(=O)CN(CCN(CCN(CC(=O)O)CC(=O)O)CC(=O)O)CC(=O)O)C1CCN(C(=N)N)CC1)C(C)(C)C)C(=O)O (stereo partly drawn) ({DTPA}-[dK]P[ξGly(4-Pip(1-amidino))]RPY[Tle][tBuAla]-OH)" measured_value=89.2

Kindly review the next molecule as well.
Please fill in: % of peptide at 4 hours after incubation at 37EC, Serum reported for CC(C)C[C@H](NC(=O)[C@@H](NC(=O)[C@H](Cc1ccc(O)cc1)NC(=O)[C@@H]1CCCN1C(=O)C(NC(=O)C(NC(=O)[C@@H]1CCCN1C(=O)[C@@H](CCCCN)NC(=O)CN(CCN(CCN(CC(=O)O)CC(=O)O)CC(=O)O)CC(=O)O)C1CCN(C(=N)N)CC1)C1CCNCC1)C(C)(C)C)C(=O)O (stereo partly drawn) ({DTPA}-[dK]P[ξGly(4-Pip(1-amidino))][ξGly(piperidin-4-yl)]PY[Tle]L-OH) = 91.6
